Cited source for all entries: PubChem BioAssay (Tox21)

protocolSummary: qHTS RealTime-Glo MT Cell Viability Assay in HEK293 cells - 8 hour (AID 1224887); further: nearly all actives have a fitted effect of over 50% in size
particulars: RealTime-Glo luminescence; series mostly up to 76.8 µM
Records with an inconclusive call do not appear. The source made the active and inactive calls. The call rests on the fitted dose curve; in most records, active means well fitted cell-killing curve with a large enough effect in the repeat runs; inconclusive means weak or mixed curves, or effect the other way; inactive means flat fitted curve, though single readings scatter.
In this exercise, the only acceptable responses are active, inactive

Please review the entries below; each comes with its answer.
molecule: CCCCCCC/C=C/C=O
assignedLabel: inactive
--
molecule: CC(C)CCCCCCCOC(=O)c1ccc(C(=O)OCCCCCCCC(C)C)c(C(=O)OCCCCCCCC(C)C)c1
assignedLabel: inactive
--
molecule: FC(F)(Cl)C(F)(Cl)Cl
assignedLabel: inactive
--
molecule: O=C(O)CCc1nc2ccccc2[nH]1
assignedLabel: inactive
--
molecule: O=S(=O)(O)c1cc(Cl)c(Cl)cc1Cl
assignedLabel: inactive
--
molecule: CCCOC(C)=O
assignedLabel: inactive
--
molecule: CCCCCCCCCCCCCCCCN
assignedLabel: inactive
--
molecule: CC1=C(C)C(=O)C(C(CCCCCC(=O)O)c2ccccc2)=C(C)C1=O (stereo not drawn)
assignedLabel: active
--
molecule: COc1ccc(CN(CCN(C)C)c2ncccn2)cc1
assignedLabel: inactive
--
molecule: CC[C@H](NC(C)C)[C@H](O)c1ccc(O)c2[nH]c(=O)ccc12
assignedLabel: inactive

Ask: What did the test return for O=C(O)c1ccccc1-n1cc(C(=O)O)c(=O)c2cc(Nc3c(F)cc(F)cc3Cl)c(Cl)cc21 ?
Reply: inactive

Ask: What did the test return for C1=COCCC1 ?
Reply: inactive

Ask: What did the test return for CNc1ccccc1 ?
Reply: inactive
